Test system: USSR H1N1 virus
Assay type: cell-based, influenza A virus (A/USSR/77)
Settings: NHBE cells; 30 min priming; […]; read-out: USSR virus inhibitory concentration IC50
pIC50: −log10 of the molar value.
Parameter: pIC50

• C/C=C(/C)C(=O)O[C@H]1C(C)=C2[C@H]([C@@H]1OC(=O)CCCCCCC)[C@@](C)(OC(C)=O)C[C@H](OC(=O)CCC)[C@@]1(O)[C@H]2OC(=O)[C@@]1(C)O [TG, thapsigargin] = 8.41

###

System: NHBE cells
Settings: read-out: cellular cytotoxicity CC50, 30 min priming, viability after 24 h
Parameter: CC50

- C/C=C(/C)C(=O)O[C@H]1C(C)=C2[C@H]([C@@H]1OC(=O)CCCCCCC)[C@@](C)(OC(C)=O)C[C@H](OC(=O)CCC)[C@@]1(O)[C@H]2OC(=O)[C@@]1(C)O [TG, thapsigargin]: 33.5 µM
